Test system: DFO2036
Assay: qHTS profiling for inhibitors of Plasmodium falciparum proliferation (AID 504749); note: nearly all actives have a fitted effect of over 60% in size
Conditions: P. falciparum in erythrocytes, SYBR Green DNA, 72 h; series mostly up to 28.7 µM
Records with an inconclusive call do not appear. Activity calls are given as the source filed them. Calls come from the whole dose curve; as a rule, active = well fitted inhibition curve with a large enough effect; inconclusive = small, poorly fitted or top-dose-only effect; inactive = flat fitted curve, though single readings scatter.
Give one outcome, nothing more. List: YES for active, NO for inactive

IN: What call does the record list for Oc1c(Br)cc(Br)c2cccnc12 ?
OUT: NO

IN: What call does the record list for O=C(O)/C=C/C(O)c1ccc(Cl)cc1 (stereo not given) ?
OUT: NO

IN: What call does the record list for C#C[C@]1(O)CC[C@H]2[C@@H]3CCc4cc(O)ccc4[C@H]3CC[C@@]21C ?
OUT: NO

IN: What call does the record list for Nc1ccc(C(=O)O)c(O)c1 ?
OUT: NO

IN: What call does the record list for COc1cc(CNC(=O)CCCC/C=C/C(C)C)ccc1O ?
OUT: NO

IN: What call does the record list for O=C(/C=C/c1ccccc1)NCCO ?
OUT: NO

IN: What call does the record list for CCCCCCCCCCCCCCCC(=O)OC(C)C ?
OUT: NO

IN: What call does the record list for Nc1ccc(O)c(C(=O)O)c1 ?
OUT: NO

IN: What call does the record list for CC(=O)[C@]1(O)Cc2c(O)c3c(c(O)c2[C@@H](O[C@H]2C[C@H](N)[C@H](O)[C@H](C)O2)C1)C(=O)c1c(O)cccc1C3=O ?
OUT: YES

IN: What call does the record list for CCCCCCCCCCCCCCCCCC(=O)O ?
OUT: NO

IN: What call does the record list for COc1ccc(-c2cc(=S)ss2)cc1 ?
OUT: NO

IN: What call does the record list for C=C(Nc1ccc(OCC)cc1)Nc1ccc(OCC)cc1 ?
OUT: NO

IN: What call does the record list for CCOc1ccc2nc(S(N)(=O)=O)sc2c1 ?
OUT: NO

IN: What call does the record list for COc1ccc(/C=C/C(=O)Nc2ccccc2C(=O)O)cc1OC ?
OUT: NO
